Reference source: patent US5401853A

Test system: mice
Assay: Dispair test (Porsolt) in mice
Format: in vivo, Swiss strain male mice (CD-1 Charles River)
Settings: Mus musculus, ip, 1 h; Dispair test, i.p.; read-out: active dosage
Description: This behaviouristic test conceived by Porsolt (1977 --Nature, 266 730-732 is generally utilized to evaluate the antidepressant activity. Swiss strain male mice of average weight of 30 g (CD -1 Charles River) casually assigned to the different treatment groups are used. […] The test lasts 6 minutes and the time in which the animal lets itself float without reacting is measured starting from the 2nd minute (immobility duration). […]
# reported minimal effective dose; entries follow
metric name: minimal effective dose (mg/kg)

compound="CC(=O)Nc1nnc(SC(C)C)s1 [B36]" endpoint_value=1
compound="CN(C)CCCN1c2ccccc2CCc2ccccc21 [imipramine, reference compound]" endpoint_value=20
compound="CC(C)Sc1nnc(N)s1 [B35]" endpoint_value=10
